Property: Emax; scope: individual compounds
biological target: UniProtKB P10275; test: LNCaP-AR-wt AG reporter assay (agonist mode); type: cell-based; conditions: maximum % stimulation (agonist response) over the tested concentration range; read-out: LNCaP-AR-wt AG MAX % Stim
Sequence (P10275 whole entry): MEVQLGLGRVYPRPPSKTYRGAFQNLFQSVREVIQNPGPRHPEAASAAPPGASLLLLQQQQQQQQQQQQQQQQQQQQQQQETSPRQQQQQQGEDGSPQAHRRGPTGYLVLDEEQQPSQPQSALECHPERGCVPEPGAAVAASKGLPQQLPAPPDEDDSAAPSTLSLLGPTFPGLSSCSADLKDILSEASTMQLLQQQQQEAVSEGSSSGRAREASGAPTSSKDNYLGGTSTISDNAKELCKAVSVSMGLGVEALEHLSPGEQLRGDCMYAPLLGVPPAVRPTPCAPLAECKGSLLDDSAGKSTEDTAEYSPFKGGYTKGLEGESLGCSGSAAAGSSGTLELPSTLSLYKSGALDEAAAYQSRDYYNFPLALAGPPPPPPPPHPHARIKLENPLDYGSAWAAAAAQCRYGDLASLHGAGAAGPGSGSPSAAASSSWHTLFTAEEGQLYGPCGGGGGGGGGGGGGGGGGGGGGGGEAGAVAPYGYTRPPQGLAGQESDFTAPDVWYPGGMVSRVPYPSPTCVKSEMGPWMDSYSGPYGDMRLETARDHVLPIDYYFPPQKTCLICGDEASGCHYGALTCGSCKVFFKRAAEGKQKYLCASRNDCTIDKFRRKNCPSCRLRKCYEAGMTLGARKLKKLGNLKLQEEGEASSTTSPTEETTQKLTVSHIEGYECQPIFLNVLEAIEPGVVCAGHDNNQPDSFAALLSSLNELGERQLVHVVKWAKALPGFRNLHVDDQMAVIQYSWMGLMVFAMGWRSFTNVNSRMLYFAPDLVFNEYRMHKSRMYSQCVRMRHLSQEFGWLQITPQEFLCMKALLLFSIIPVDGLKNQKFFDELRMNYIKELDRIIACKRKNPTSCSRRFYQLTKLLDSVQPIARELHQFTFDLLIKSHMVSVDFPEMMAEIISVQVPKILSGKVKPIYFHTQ

(Q) Look up Emax for this compound: "N#Cc1ncc(N2C(=O)C3(CCC3)N(c3ccc(O)nc3)C2=S)cc1Cl"
(A) -0.3%

(Q) Further, for "N#Cc1ncc(N2C(=O)C3(CCC3)N(c3ccc4nn(C5CCNCC5)cc4c3)C2=S)cc1Cl" ?
(A) 0.2%

(Q) Further, for "CN1[C@@H]2CC[C@H]1C[C@H](Oc1ccc(N3C(=S)N(c4cnc(C#N)c(C(F)(F)F)c4)C(=O)C34CCC4)cc1)C2" ?
(A) 2.8%

(Q) Further, for "COCCn1cc2ccc(N3C(=S)N(c4cnc(C#N)c(C(F)(F)F)c4)C(=O)C34CCC4)cc2n1" ?
(A) -0.2%

(Q) Further, for "CN1CCC(C(=O)c2ccc(N3C(=S)N(c4cnc(C#N)c(C(F)(F)F)c4)C(=O)C34CCC4)cc2)CC1" ?
(A) 0.3%

More entries:
(Q) Look up Emax for this compound: CNC1CCC(Oc2ccc(N3C(=S)N(c4cnc(C#N)c(C(F)(F)F)c4)C(=O)C34CCC4)cc2)CC1 (centres unmarked)
(A) 0.6%

(Q) Further, for "Cc1cc(N2C(=O)C3(CCC3)N(c3ccc(OC4CCNCC4)nc3)C2=S)cnc1C#N" ?
(A) 0.1%

(Q) Further, for "COC(=O)CN1CCC(Oc2ccc(N3C(=S)N(c4cnc(C#N)c(C(F)(F)F)c4)C(=O)C34CCC4)cc2)CC1" ?
(A) 0.2%
